target: BRM (Homo sapiens); construct: made in house; host or cells: High Five insect cells; test: ATPase catalytic activity of BRM, ADP-Glo in vitro biochemical assay; settings: ratio of BRG1 IC50 to BRM IC50
# binarize Ratio*: threshold 20 inclusive, high side Satisfied, low side Not satisfied

Record O=C(NCc1cc2nc(N3CCCc4c(OC(F)F)ccnc43)ccc2cn1)c1ccc2c(c1)S(=O)(=O)CCOC2 ; criterion: Ratio* no lower than 20. Met?
Not satisfied

Also check CCOc1cccc(-c2ccc3cnc(CNC(=O)c4ccc5c(c4)S(=O)(=O)[C@@H](C)COC5)cc3n2)n1
Satisfied

Also check CC[C@@H]1COCc2ccc(C(=O)NCc3cc4nc(-c5cccc(N6C[C@@H](C)O[C@@H](C)C6)n5)ccc4cn3)cc2S1(=O)=O
Not satisfied

Also check Cc1cc(C(=O)NCc2cc3nc(-c4cccc(N5C[C@@H](C)O[C@@H](C)C5)n4)ccc3cn2)cc2c1OCC[C@@H](C)S2(=O)=O
Not satisfied

Also check CC1COCc2ccc(C(=O)NCc3cc4nc(N5CCOc6cccnc65)ccc4cn3)cc2S1(=O)=O (centres unmarked)
Not satisfied

Also check C[C@@H]1CN(c2cccc(-c3ccc4cnc(CNC(=O)c5ccc6c(c5)S(=O)(=O)[C@@H](C)CO[C@@H]6C)cc4n3)n2)C[C@H](C)O1
Not satisfied

Also check Cc1cc(C(=O)NCc2cc3nc(-c4cccc(N5C[C@@H](C)O[C@@H](C)C5)n4)ccc3cn2)cc2c1COC[C@H](C)S2(=O)=O
Not satisfied

Also check C[C@@H]1CN(c2cccc(-c3ccc4cnc(CNC(=O)c5cccc(S(=O)(=O)C6CC6)c5)cc4n3)n2)C[C@H](C)O1
Satisfied

Also check Cc1cc(C(=O)NCc2cc3nc(-c4cccc(N5C[C@@H](C)O[C@@H](C)C5)n4)ccc3cn2)cc2c1OCC[C@H](C)S2(=O)=O
Satisfied

Also check C[C@@H]1CN(c2cccc(-c3ccc4cnc(CNC(=O)c5ccc6c(c5)S(=O)(=O)CC[C@H](C5CC5)O6)cc4n3)n2)C[C@H](C)O1
Not satisfied

Also check COc1cc2c(nc1C1CC1)N(c1ccc3cnc(CNC(=O)c4ccc5c(c4)S(=O)(=O)CCOC5)cc3n1)CCC2
Not satisfied

Also check Cc1ccc2c(c1)OCCN2c1ccc2cnc(CNC(=O)c3ccc4c(c3)S(=O)(=O)CCOC4)cc2n1
Not satisfied

Also check COc1ccc(C(C)(F)F)cc1-c1ccc2cnc(CNC(=O)c3ccc4c(c3)S(=O)(=O)CCOC4)cc2n1
Not satisfied

Also check O=C(NCc1cc2nc(N3CCCc4cc(F)cnc43)ccc2cn1)c1ccc2c(c1)S(=O)(=O)CCOC2
Not satisfied

Also check C[C@@H]1CN(c2cccc(-c3ccc4cnc(CNC(=O)c5cc(F)c6c(c5)S(=O)(=O)CCO[C@@H]6C)cc4n3)n2)C[C@H](C)O1
Not satisfied

Also check CN1CCN(c2ccc3cnc(CNC(=O)c4ccc5c(c4)S(=O)(=O)CCOC5)cc3n2)c2ncccc21
Not satisfied

Also check O=C(NCc1cc2nc(-c3ccc4c(n3)C(F)(F)CC4)ccc2cn1)c1ccc2c(c1)S(=O)(=O)CCOC2
Not satisfied

Also check COCCc1ccc2c(n1)N(c1ccc3cnc(CNC(=O)c4ccc5c(c4)S(=O)(=O)CCOC5)cc3n1)CCC2
Satisfied

Also check COc1ccnc2c1CCCN2c1ccc2cnc(CNC(=O)c3ccc4c(c3)S(=O)(=O)CCOC4)cc2n1
Not satisfied

Also check O=C(NCc1cc2nc(N3CCc4ccc(Cl)cc43)ccc2cn1)c1ccc2c(c1)S(=O)(=O)CCOC2
Satisfied

Also check C[C@@H]1CN(c2cccc(-c3ccc4cnc(CNC(=O)c5cc(Cl)c6c(c5)S(=O)(=O)[C@H](C)CCO6)cc4n3)n2)C[C@H](C)O1
Not satisfied

Also check COc1nc(C)ccc1-c1ccc2cnc(CNC(=O)c3ccc4c(c3)S(=O)(=O)[C@@H](C)COC4)cc2n1
Not satisfied

Also check O=C(NCc1cc2nc(-c3cccc4c3CC3COCCN43)ccc2cn1)c1ccc2c(c1)S(=O)(=O)CCOC2 (centres unmarked)
Not satisfied

Also check C[C@@H]1CN(c2cccc(-c3ccc4cnc(CNC(=O)c5cc(F)c6c(c5)S(=O)(=O)[C@H](C)CN6C)cc4n3)n2)C[C@H](C)O1
Not satisfied

###

Target: BRM (Homo sapiens)
Construct: made in house; host or cells: High Five insect cells
Assay: ATPase catalytic activity of BRM, ADP-Glo in vitro biochemical assay
Details: ADP-Glo ATPase assay, 30 nM BRM, 400 μM ATP
Experimental: The ATPase catalytic activity of BRM or BRG-1 was measured by an in vitro biochemical assay using ADP-Glo™ (Promega, V9102). The ADP-Glo™ kinase assay is performed in two steps once the reaction is complete. The first step is to deplete any unconsumed ATP in the reaction. The second step is to convert the reaction product ADP to ATP, which will be utilized by the luciferase to generate luminesce and be detected by a luminescence reader, such as Envision. […]
For each entry below, report its pIC50 value.
Interpret pIC50 as the negative base-10 log of the concentration measured in mol/L.

pIC50 lookup needed for CS(=O)(=O)c1cc(C(=O)NCc2cc3nc(-c4cncc(C5CC5)n4)ccc3cn2)ccc1F , thanks.
6.18

Also check COc1nn([C@H]2C[C@H](F)C2)cc1-c1ccc2cnc(CNC(=O)c3ccc4c(c3)S(=O)(=O)CCOC4)cc2c1
7.44

Also check COc1cc(Cl)ccc1-c1ccc2cnc(CNC(=O)c3ccc4c(c3)S(=O)(=O)CCOC4)cc2n1
7.73

Also check CC1COCc2ccc(C(=O)NCc3cc4nc(-c5cccc(N6CCC6)n5)ccc4cn3)cc2S1(=O)=O (single isomer, unassigned) [Compound 197]
7.71

Also check O=C(NCc1cc2nc(N3CCOc4c3ncc(C3CC3)c4F)ccc2cn1)c1ccc2c(c1)S(=O)(=O)CCOC2
7.88

Also check COCc1cc(C)c2c(n1)N(c1ccc3cnc(CNC(=O)c4ccc5c(c4)S(=O)(=O)CCOC5)cc3n1)CCC2
7.37

Also check C[C@H]1C[C@H]1c1ccc2c(n1)N(c1ccc3cnc(CNC(=O)c4ccc5c(c4)S(=O)(=O)CCOC5)cc3n1)CCO2
7.45

###

target: BRM (Homo sapiens, UniProt P51531); construct: made in house; host or cells: High Five insect cells; experiment: ATPase catalytic activity of BRM, ADP-Glo in vitro biochemical assay; conditions: ratio BRG1 IC50 / BRM IC50
Sequence (P51531 whole entry): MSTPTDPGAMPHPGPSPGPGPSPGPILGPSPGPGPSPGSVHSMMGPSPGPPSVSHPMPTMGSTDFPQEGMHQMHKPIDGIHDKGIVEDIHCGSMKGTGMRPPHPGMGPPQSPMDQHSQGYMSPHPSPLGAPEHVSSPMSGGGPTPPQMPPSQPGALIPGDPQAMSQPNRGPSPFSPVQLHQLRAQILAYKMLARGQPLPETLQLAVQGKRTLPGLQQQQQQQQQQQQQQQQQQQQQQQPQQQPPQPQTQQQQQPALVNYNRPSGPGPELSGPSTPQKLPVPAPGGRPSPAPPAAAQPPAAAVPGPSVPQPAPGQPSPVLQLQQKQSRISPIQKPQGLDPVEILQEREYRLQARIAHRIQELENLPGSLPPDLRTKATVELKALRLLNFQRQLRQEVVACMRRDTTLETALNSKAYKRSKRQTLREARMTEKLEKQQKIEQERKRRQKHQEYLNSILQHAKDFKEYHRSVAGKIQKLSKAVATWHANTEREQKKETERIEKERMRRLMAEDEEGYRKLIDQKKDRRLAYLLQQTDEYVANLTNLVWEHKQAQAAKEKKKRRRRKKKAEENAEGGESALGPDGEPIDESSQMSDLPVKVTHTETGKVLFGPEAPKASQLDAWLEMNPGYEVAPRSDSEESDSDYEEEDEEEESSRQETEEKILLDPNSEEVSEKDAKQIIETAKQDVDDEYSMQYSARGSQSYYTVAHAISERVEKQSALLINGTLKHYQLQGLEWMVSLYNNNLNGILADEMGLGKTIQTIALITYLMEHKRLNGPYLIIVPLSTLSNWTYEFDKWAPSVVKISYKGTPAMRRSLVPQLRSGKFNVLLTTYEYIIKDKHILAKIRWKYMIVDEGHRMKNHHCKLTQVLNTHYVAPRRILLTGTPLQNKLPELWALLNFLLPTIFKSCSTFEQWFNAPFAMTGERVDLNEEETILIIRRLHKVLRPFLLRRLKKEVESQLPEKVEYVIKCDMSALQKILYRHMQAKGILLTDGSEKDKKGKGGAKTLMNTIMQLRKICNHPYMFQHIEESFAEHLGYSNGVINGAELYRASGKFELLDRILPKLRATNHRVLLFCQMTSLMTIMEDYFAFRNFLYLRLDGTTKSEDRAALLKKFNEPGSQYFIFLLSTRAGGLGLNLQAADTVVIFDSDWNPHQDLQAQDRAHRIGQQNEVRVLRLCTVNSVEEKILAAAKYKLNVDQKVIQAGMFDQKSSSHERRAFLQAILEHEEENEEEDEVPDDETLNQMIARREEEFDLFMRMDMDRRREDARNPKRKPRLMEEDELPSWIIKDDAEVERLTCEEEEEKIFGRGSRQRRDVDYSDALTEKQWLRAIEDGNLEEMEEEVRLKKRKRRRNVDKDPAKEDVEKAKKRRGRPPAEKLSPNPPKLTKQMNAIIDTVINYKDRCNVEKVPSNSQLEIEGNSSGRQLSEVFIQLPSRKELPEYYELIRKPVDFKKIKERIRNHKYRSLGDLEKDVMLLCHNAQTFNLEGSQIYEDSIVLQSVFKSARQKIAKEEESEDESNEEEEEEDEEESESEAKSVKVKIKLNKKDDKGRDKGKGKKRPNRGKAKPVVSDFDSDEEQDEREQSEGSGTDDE
# class 1 = Ratio* below 10 (exclusive); class 0 = Ratio* at/above 10

A record lists O=C(NCc1cc2cc(N3CCOc4ccc(C5CC5)cc43)ccc2cn1)c1ccc2c(c1)S(=O)(=O)CCOC2 [Compound 787] . Is its Ratio* below 10?
class 0

Also check O=C(NCc1cc2nc(N3CCOc4ccc(C5CC(F)(F)C5)nc43)ccc2cn1)c1ccc2c(c1)S(=O)(=O)CCOC2 [Compound 828]
class 0

Also check O=C(NCc1cc2nc(N3CCOc4nc(C5CC5)ccc43)ccc2cn1)c1ccc2c(c1)S(=O)(=O)CCOC2 [Compound 843]
class 1

Also check O=C(NCc1cc2nc(N3CCCc4c(N5CCC5)ccnc43)ccc2cn1)c1ccc2c(c1)S(=O)(=O)CCOC2 [Compound 814]
class 0

Also check O=C(NCc1cc2nc(N3CCOc4cc(N5CCC5)ncc43)ccc2cn1)c1ccc2c(c1)S(=O)(=O)CCOC2 [Compound 834]
class 0

Also check O=C(NCc1cc2nc(N3CCOc4nc(C(F)F)ccc43)ccc2cn1)c1ccc2c(c1)S(=O)(=O)CCOC2 [Compound 846]
class 0

Also check CN(C)c1cc2c(cn1)N(c1ccc3cnc(CNC(=O)c4ccc5c(c4)S(=O)(=O)CCOC5)cc3n1)CCO2 [Compound 803]
class 0

Also check CC1(c2ccc3c(n2)N(c2ccc4cnc(CNC(=O)c5ccc6c(c5)S(=O)(=O)CCOC6)cc4n2)CCO3)CC1 [Compound 713]
class 0

Also check O=C(NCc1cc2nc(-c3cccc(OCC4CC4)c3)ccc2cn1)c1ccc2c(c1)S(=O)(=O)CCOC2 [Compound 820]
class 0

Also check O=C(NCc1ncc2ccc(N3CCOc4cc(C5CC5)cnc43)cc2n1)c1ccc2c(c1)S(=O)(=O)CCOC2 [Compound 800]
class 1

Also check O=C(NCc1cc2cc(N3CCOc4cc(C5CC5)cnc43)cnc2cn1)c1ccc2c(c1)S(=O)(=O)CCOC2 [Compound 801]
class 0

Also check O=C(NCc1cc2nc(N3CCCc4ccc(OCC5CCCO5)cc43)ccc2cn1)c1ccc2c(c1)S(=O)(=O)CCOC2 (stereo not drawn) [Compound 747]
class 0

Also check COCCN(c1ccc(C2CC2)cn1)c1ccc2cnc(CNC(=O)c3ccc4c(c3)S(=O)(=O)CCOC4)cc2n1 [Compound 833]
class 1

Also check C[C@@H]1C[C@@H]1c1ccc2c(n1)N(c1ccc3cnc(CNC(=O)c4ccc5c(c4)S(=O)(=O)CCOC5)cc3n1)CCO2 [Compound 832]
class 0

Also check [2H]C1([2H])Oc2ccc(C(=O)NCc3cc4nc(N5CCOc6ccc(C(F)F)nc65)ccc4cn3)cc2S(=O)(=O)C([2H])([2H])C1([2H])[2H] [Compound 818]
class 0

Also check O=C(NCc1cc2nc(N3CCOc4cc(C5CCC5)cnc43)ccc2cn1)c1ccc2c(c1)S(=O)(=O)CCOC2 [Compound 753]
class 0

Also check CC1(c2cnc3c(c2)OCCN3c2ccc3cnc(CNC(=O)c4ccc5c(c4)S(=O)(=O)CCOC5)cc3n2)CC1 [Compound 712]
class 0

Also check Cc1nc(C)c2c(n1)N(c1ccc3cnc(CNC(=O)c4ccc5c(c4)S(=O)(=O)CCOC5)cc3n1)CCC2 [Compound 841]
class 1

Also check COCc1cc2c(c(F)c1Cl)N(c1ccc3cnc(CNC(=O)c4ccc5c(c4)S(=O)(=O)CCOC5)cc3n1)CCO2 [Compound 794]
class 1

Also check O=C(NCc1cc2nc(N3CCOc4c(F)cc(C5CC5)nc43)ccc2cn1)c1ccc2c(c1)S(=O)(=O)CCOC2 [Compound 804]
class 0

Also check COc1cc2c(cn1)CCCN2c1ccc2cnc(CNC(=O)c3ccc4c(c3)S(=O)(=O)CCOC4)cc2n1 [Compound 768]
class 0

Also check COc1cncc2c1CCCN2c1ccc2cnc(CNC(=O)c3ccc4c(c3)S(=O)(=O)CCOC4)cc2n1 [Compound 761]
class 1

Also check O=C(NCc1cc2cc(N3CCOc4ccc(C5CC5)nc43)ccc2cn1)c1ccc2c(c1)S(=O)(=O)CCOC2 [Compound 729]
class 0

Also check CS(=O)(=O)c1cc(C(=O)NCc2cc3nc(N4CCCc5ccc(C6CC6)nc54)ccc3cn2)cnc1C(F)F [Compound 721]
class 0

Also check CN(C)c1ccc2c(n1)OCCN2c1ccc2cnc(CNC(=O)c3ccc4c(c3)S(=O)(=O)CCOC4)cc2n1 [Compound 845]
class 1

Also check Cc1cnc2c(c1)N(C1CC1)CCN2c1ccc2cnc(CNC(=O)c3ccc4c(c3)S(=O)(=O)CCOC4)cc2n1 [Compound 748]
class 0
